experiment: chemical genetic growth profiling, strain panel (AID 1159580);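 note: tested at 20 µM; growth read once vehicle control cultures reached saturation at 30 °C; 1 = growth at the plate median or of vehicle wells; lower values mean less growth of the strain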; conditions: S. cerevisiae deletion strains, growth OD, locus YLR058C, strain SHM2 (second series), hits give low values
The whole screen tested about 5,500 compounds, of which about 2,000 (36%) were called active. Not shown: some 18% with an inconclusive outcome. The list shows a part of the results.
Recorded normalized growth values for a group of compounds are listed next.

| Compound | normalized growth |
| --- | --- |
| Cc1ccc(C(=O)NNC(=O)c2ccncc2)c(C)c1 | 0.994 |
| CCn1cc([N+](=O)[O-])nc1C | 0.998 |
| CCCc1ccc(OC)cc1NC(C)=O | 1.02 |
| CC(C)(C)c1cc(C(C)(C)C)n(-c2ccc([N+](=O)[O-])cc2)n1 | 1.01 |
| FC(F)(F)c1cc(NC2=NCCN=C(Nc3cc(C(F)(F)F)cc(C(F)(F)F)c3)SS2)cc(C(F)(F)F)c1 | 1.01 |
| COc1cccc(NC(=S)NCc2ccco2)c1 | 0.984 |
| CCCCCc1ccc(S(=O)(=O)Nc2cccnc2Oc2ccc(Cl)cc2)cc1 | 0.994 |
| CC(NC(=S)Nc1ccc(Oc2ccc(Cl)cc2)cc1)c1ccccc1 (centres undefined) | 0.988 |
| N#CCCNc1cc(C(F)(F)F)cc(C(F)(F)F)c1 | 1.01 |
